Origin of measurements: patent US20050064518A1

# SYSTEM NAME: T1, O772P 3-repeat recombinant protein (human)
# T1 construct: Repeats are residues 14-452 of the entry
# T1 chain: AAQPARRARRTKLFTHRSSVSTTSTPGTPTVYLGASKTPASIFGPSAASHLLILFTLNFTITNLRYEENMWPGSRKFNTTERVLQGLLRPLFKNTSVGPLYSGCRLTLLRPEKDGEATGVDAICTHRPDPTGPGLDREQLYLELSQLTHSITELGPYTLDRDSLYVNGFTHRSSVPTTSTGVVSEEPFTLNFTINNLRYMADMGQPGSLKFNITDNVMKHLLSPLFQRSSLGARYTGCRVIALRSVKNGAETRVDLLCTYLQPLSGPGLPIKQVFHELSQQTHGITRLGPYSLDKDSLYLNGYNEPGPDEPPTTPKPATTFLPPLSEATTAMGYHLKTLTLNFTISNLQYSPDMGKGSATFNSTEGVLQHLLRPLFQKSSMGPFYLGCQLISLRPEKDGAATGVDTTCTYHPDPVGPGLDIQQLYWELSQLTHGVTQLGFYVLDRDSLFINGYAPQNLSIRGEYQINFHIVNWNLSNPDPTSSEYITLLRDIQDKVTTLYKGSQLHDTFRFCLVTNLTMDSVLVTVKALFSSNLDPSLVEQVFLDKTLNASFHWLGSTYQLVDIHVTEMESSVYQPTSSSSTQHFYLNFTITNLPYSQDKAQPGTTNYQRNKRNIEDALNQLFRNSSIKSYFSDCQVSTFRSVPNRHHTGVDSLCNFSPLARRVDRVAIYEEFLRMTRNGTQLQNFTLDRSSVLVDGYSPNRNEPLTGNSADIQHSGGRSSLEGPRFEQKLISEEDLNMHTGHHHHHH
# PROCEDURE DETAILS: ELISA, plate-bound O772P 3-repeat
# Procedure: On the next day, the plates were washed with 200 μl 1×PBST (1× phosphate-buffered saline (PBS), 0.05% Tween 20) three times and blocked with 100 μl of 1×PBST containing 1% bovine serum albumin (BSA) for 2 hours at 37° C. […] The assay was done in triplicate for each selected O772P hybridoma-produced antibody and data was collected and analyzed as a kinetic assay, measured over a 5 minute time period. Average values were calculated and presented. […]
OUTCOME MEASURE: absorbance (OD)/µg Ab (OD/µg Ab)
# value in OD/µg Ab; strip the unit string

monoclonal antibody 501.1 (antibody, V domains shown, Murine hybridoma antibody) VH: QIQLVQSGPELKKPGETVQISCKASGYIFTDYGMNWVKQAPGKGLKWMGCINTYTGETIYSDDFRGRFAISLETSASTAFIQINNLKNEDAATYFCARGNYRDAIDYWGQGTSVTVSS VL: DIKMTQSPSSIYASLGERVTITCKASQDIKSYLSWYQQKPWKSPKTLIYYATTLADGVPSRFSGSGSGQDYSLIINSLESDDIATYFCLHHDESPFTFGSGTKLEI ... 21
monoclonal antibody 368.1 (antibody, V domains shown, Murine hybridoma antibody) VH: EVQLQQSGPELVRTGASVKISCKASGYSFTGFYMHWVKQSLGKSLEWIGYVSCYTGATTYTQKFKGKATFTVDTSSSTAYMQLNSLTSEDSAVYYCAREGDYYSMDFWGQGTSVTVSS VL: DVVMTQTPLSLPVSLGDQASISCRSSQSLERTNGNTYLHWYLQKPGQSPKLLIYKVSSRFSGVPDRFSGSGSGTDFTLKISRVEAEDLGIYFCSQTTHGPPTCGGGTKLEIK ... 32
monoclonal antibody 776.1 (antibody, V domains shown) VH: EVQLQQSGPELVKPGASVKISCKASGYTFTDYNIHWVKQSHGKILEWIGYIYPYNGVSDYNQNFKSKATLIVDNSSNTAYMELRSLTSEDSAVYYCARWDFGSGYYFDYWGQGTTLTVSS VL: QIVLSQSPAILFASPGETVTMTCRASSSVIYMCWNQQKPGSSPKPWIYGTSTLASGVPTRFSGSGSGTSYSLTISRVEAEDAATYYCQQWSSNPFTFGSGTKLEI ... 29
monoclonal antibody 117.1 (antibody, V domains shown, Murine hybridoma antibody) VH: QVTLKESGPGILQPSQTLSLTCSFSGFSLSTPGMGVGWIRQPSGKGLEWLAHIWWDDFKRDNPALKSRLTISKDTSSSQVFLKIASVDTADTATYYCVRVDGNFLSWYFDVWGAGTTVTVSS VL: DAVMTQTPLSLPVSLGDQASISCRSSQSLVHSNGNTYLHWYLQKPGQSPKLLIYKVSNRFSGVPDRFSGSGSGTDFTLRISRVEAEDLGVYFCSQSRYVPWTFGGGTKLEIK ... 15

Moving on to the next binder.
absorbance (OD)/µg Ab for OC125 (antibody) chain 1: QVQLQESGPELVKPGASVKISCKASGYTFTDYNMHWVKQSHGKSLEWIGYIYPYNGDTGYNQKFRNKASLTVDTSSSTAYMELRSLTSEDSAVYYWARSGGFWYFDVWGQGGTTVTVSS chain 2: DIQMTQSPAILSASPGEKVTMTCRATPSVSYMHWYQQKPGSSPKPLIYTTSNLASGVPARFSGGGSGTSYSLTVSRVEVEDAATYYCQQWSRSPPTFGAGTKLEIK ?
18
